test system: A549 NSCLC; assay: NCI tumour cell line growth inhibition, 48 h
attribute_measured: TGI

COc1ccc(CNc2nc3ccc(C(F)(F)F)cc3nc2-c2ccccc2)cc1OC | > 100 µM

Input line: Endpoint output: TGI of CC1(C)N=C(N)N=C(N)N1c1ccc(CCCCc2ccc(S(=O)(=O)F)cc2Cl)c(Cl)c1 . Value?
Output line: 200 µM

Input line: Now the same for O=C(O)Cc1c[nH]c2ccc(F)cc12
Output line: > 100 µM

Input line: Now the same for c1ccc(N=c2snc(-c3ccccc3)s2)cc1
Output line: > 100 µM

Input line: Now the same for Cc1nc2ccc([N+](=O)[O-])cc2c(=O)n1C(=S)Nc1cccc(Cl)c1
Output line: 92 µM

Input line: Now the same for CN(C)S(=O)(=O)Nc1ccccn1
Output line: > 100 µM

Input line: Now the same for COc1cc2c(cc1OC)C1C=NC(C(=O)O)(C2)c2ccccc21 (stereo unspecified)
Output line: > 100 µM

Input line: Now the same for O=c1c2cc(I)ccc2[nH]c(=S)n1Cc1ccccc1
Output line: > 100 µM

Input line: Now the same for O=c1[nH]c(=O)n(C2CC(O)C(CO)O2)cc1C#Cc1c(F)c(F)c(F)c(F)c1F (stereo unspecified)
Output line: > 100 µM

Input line: Now the same for O=C(O)CNC(=O)c1ccc([As](=O)(O)O)cc1
Output line: > 100 µM

Input line: Now the same for CCOC(=O)C(=O)N1C(C)=C(C(=O)OCC)CC(C(=O)OCC)=C1C
Output line: > 100 µM

====

tested on: NCI-H460 lung; experiment: NCI tumour cell line growth inhibition, 48 h
attribute_measured: TGI

Would you please look over these solved cases?
CC(=O)OCC1OC(n2c(=S)[nH]c(-c3ccccc3)c(C#N)c2=O)C(OC(C)=O)C(OC(C)=O)C1OC(C)=O (stereo unspecified) | > 100 µM
C#CC(C)(C)Oc1cc(O)c2c(=O)c3ccccc3n(C)c2c1 | > 100 µM
O=C1CC(c2ccc([N+](=O)[O-])cc2)C2(C(=O)NC(=S)NC2=O)C(c2ccc([N+](=O)[O-])cc2)C1 (stereo unspecified) | 42.2 µM
CC(=O)OCCc1cccnc1/C=N/O | > 100 µM
O=C1OC[C@@H]2Cc3c([nH]c4ccccc34)[C@@H](c3ccc(O)cc3)N12 | 81.4 µM

Input line: Endpoint output: TGI of COc1ccc2c(c1)C(=O)c1ccccc1C2 . Value?
Output line: > 100 µM

====

system: NCI-H522 lung; experiment: NCI tumour cell line growth inhibition, 48 h
Parameter threshold = 20 µM. Response is t when TGI meets or exceeds it, else f.

Worked examples, 8 molecules total:
CC1=CC=CC(C)(C)CC1(O[Si](C)(C)C)C(F)(F)F (centres undefined) | t
CC1CC(C#N)=C2NCCCCN2C1=O (centres undefined) | t
N#Cc1nc(-c2ccc(F)cc2)oc1S(=O)(=O)N1CCOCC1 | f
O=C(Cc1ccc(/C=C/C(=O)c2ncc[nH]2)cc1)Nc1ccc(Cl)cc1 | f
CC(=O)OCC1OC(n2c(=S)[nH]c(-c3ccccc3)c(C#N)c2=O)C(OC(C)=O)C(OC(C)=O)C1OC(C)=O (centres undefined) | t
Cc1nc2nnc(C)n2c2c1C(=O)Nc1ccccc1N2 | t
O=C(O)Cc1ccc2nc(COC(=O)c3ccccc3)sc2c1 | t
N#Cc1c(O)c2c(c(O)c1C#N)C(=O)c1ccccc1C2=O | f

Input line: # bool: TGI of OCCNCO >= 20 µM
Output line: t

Input line: Now the same for COc1cc2c(c(O)c1C)C(=O)C(Cl)=CC2=O
Output line: f

Input line: Now the same for Cc1oc2nc(N(C)C)n3nnnc3c2c1C
Output line: t

Input line: Now the same for OC(c1cccc(C(F)(F)F)c1)c1cnccc1NC1CCCCCC1 (centres undefined)
Output line: f

====

tested on: KM20L2 colon; experiment: NCI tumour cell line growth inhibition, 48 h
attribute_measured: TGI

CN1CCCNCCN(CCc2ccccn2)CCCN(C)CC1 | > 100 µM
COC(=O)c1c(OC)cccc1C(=O)O | > 100 µM

Input line: Find the measured TGI: item COc1ccc(N=Cc2cc(OC)c(OC)c(OC)c2)cc1 , target or system KM20L2 colon.
Output line: > 100 µM

Input line: Now the same for O=C(N/N=C/c1cccc(O)c1O)N/N=C/c1cccc(O)c1O
Output line: 95.2 µM

====

system: HCC-2998 colon; assay: NCI tumour cell line growth inhibition, 48 h
attribute_measured: TGI

Would you please look over these solved cases?
O=c1[nH]c(=O)n(C2CC(O)C(CO)O2)cc1C#Cc1c(F)c(F)c(F)c(F)c1F (stereo unspecified) | > 100 µM
C(=Nc1ccc(-c2nc3ccccc3s2)cc1)c1ccco1 | > 100 µM
O=C1NC(=O)C2C(=O)NC(=O)C1C2(c1ccccc1)c1ccc(Cl)cc1 (stereo unspecified) | > 100 µM
O=C1OC[C@@H]2Cc3c([nH]c4ccccc34)[C@@H](c3ccc(O)cc3)N12 | > 96.7 µM

Input line: Endpoint output: TGI of O=C1c2ccccc2C(=O)c2c1ccc1[nH]c(CCl)nc21 . Value?
Output line: 12.7 µM

Input line: Now the same for CCCCn1/c(=N/C(=S)N(C)C)ss/c1=N\C(=S)N(C)C
Output line: > 100 µM

====

Measured TGI values are reported for all entries that follow.
test system: EKVX NSCLC; assay: NCI tumour cell line growth inhibition, 48 h

CCOC(=O)c1cc(-c2ccc([N+](=O)[O-])cc2)n(-c2ccc(C(=O)O)c(O)c2)c1C | 18 µM
O=C(N/N=C/c1cccc(O)c1O)N/N=C/c1cccc(O)c1O | > 100 µM
CC1=C[C@@H]2Cc3occc3C(C)(C)[C@@H]2CC1 | 33 µM

Turning to the following molecule.
Input line: Endpoint output: TGI of C=CC/C(C(=O)OC)=C(/C(=O)OC)N(CCC)CCC . Value?
Output line: > 100 µM

====

system: A498 renal; experiment: NCI tumour cell line growth inhibition, 48 h; in the data active means GI50 below about 0.43 µM; inactive means the rest
The reply should be one of these categories: y = active, n = inactive

Worked examples, 4 compounds total:
COc1cc([C@@H]2c3cc4c(cc3C[C@H]3COC(=O)[C@@H]32)OCO4)cc(OC)c1OC | y
C[C@@H]1Cc2c([nH]c3ccccc23)[C@@H](c2c(F)cc(/C=C/C(=O)O)cc2F)N1CC(C)(C)F | n
CN(C)CCNc1nc2ccccc2c2[nH]c3ccccc3c12 | n
COc1ccccc1NC(=O)c1ccc(/C=C/C(=O)c2nccn2C)cc1 | n

Read the next record carefully.
Input line: Look up the recorded call for CC1=C2[C@@H](CC1)[C@]1(C)O[C@@](C(C)C)(C[C@H]1OC(=O)[C@H](C)O)[C@H]2OC(=O)/C=C/c1ccccc1 in this test.
Output line: y

====

test system: OVCAR-8 ovarian; experiment: NCI tumour cell line growth inhibition, 48 h; in the data active = GI50 below about 0.43 µM; inactive = the rest
The reply should be one of these categories: 1.0 (active), 0.0 (inactive)

Worked examples, 3 compounds total:
O=C1c2ccccc2-c2c1c1cc3c(cc1c(=O)n2CCCCl)OCO3 | 0.0
C[C@@H]1Cc2c([nH]c3ccccc23)[C@@H](c2c(F)cc(/C=C/C(=O)O)cc2F)N1CC(C)(C)F | 0.0
CC[n+]1ccc2c(c1)C(=O)c1nccc3c1c-2nc1ccccc13 | 0.0

Input line: Look up the recorded call for N#Cc1c(O)c2c(c(O)c1C#N)C(=O)c1ccccc1C2=O in this test.
Output line: 0.0

Input line: Now the same for O=C(/C=C(\[O-])c1ccccc1)CCCCCCC(=O)/C=C(\[O-])c1ccccc1.O=C(/C=C(\[O-])c1ccccc1)CCCCCCC(=O)/C=C(\[O-])c1ccccc1.O=C(/C=C(\[O-])c1ccccc1)CCCCCCC(=O)/C=C(\[O-])c1ccccc1.[La+3].[La+3]
Output line: 0.0

Input line: Now the same for O=[n+]1c(CBr)c(CBr)n([O-])c2ccccc21
Output line: 0.0

Input line: Now the same for Clc1cccc(NC=Nc2ccc(-c3nc4ccccc4s3)cc2)c1
Output line: 0.0

Input line: Now the same for COc1cccc(-c2nn(-c3ccccc3)cc2-c2ccnc(NCCCNS(=O)(=O)c3cccc(F)c3)c2)c1
Output line: 0.0

Input line: Now the same for COc1cc([C@@H]2c3cc4c(cc3C[C@H]3COC(=O)[C@@H]32)OCO4)cc(OC)c1OC
Output line: 1.0

Input line: Now the same for CN(C)CCNc1nc2ccccc2c2[nH]c3ccccc3c12
Output line: 0.0

====

Measured TGI values are reported for all entries that follow.
tested on: NCI-H226 lung; test: NCI tumour cell line growth inhibition, 48 h

Input line: Endpoint output: TGI of CC1=C[C@@H]2Cc3occc3C(C)(C)[C@@H]2CC1 . Value?
Output line: 32.8 µM

Input line: Now the same for N#Cc1nc(-c2ccc(F)cc2)oc1S(=O)(=O)N1CCOCC1
Output line: 19.9 µM

Input line: Now the same for CN(C)c1ccc(/C=C2\C[N+](C)(C)C/C(=C\c3ccc(N(C)C)cc3)C2=O)cc1
Output line: 90.8 µM

Input line: Now the same for CC(C)(CO)N1C(=O)c2ccccc2C1(O)c1ccc(Cl)cc1 (centres undefined)
Output line: > 100 µM
